Test system: NCI-H23 lung
Experimental protocol: NCI tumour cell line growth inhibition, 48 h
Property: TGI

Supply recorded TGI for `CCOc1c(Br)cc(Br)cc1C=C(C#N)C#N` here.
> 10 µM

***
Supply recorded TGI for `O=c1[nH]ccc(CNC23CC4CC(CC(C4)C2)C3)c1O` here.
> 100 µM

Supply recorded TGI for COc1ccc(-c2ccc(C3CC(c4ccccc4)=NN3)o2)c([N+](=O)[O-])c1 (stereo unspecified) here.
> 100 µM

Supply recorded TGI for `O=c1c(Cc2ccccc2)c(O)cc2n1CCC2` here.
> 100 µM

Supply recorded TGI for `Clc1ccc2c(NCCCCCCNc3ccnc4cc(Cl)ccc34)ccnc2c1` here.
31.5 µM

Supply recorded TGI for `O=C1C(=O)c2c(nc3ccc(C(F)(F)F)cn23)-c2ccccc21` here.
0.477 µM

Supply recorded TGI for Cc1cc(=O)[nH]c(NNC(C#N)c2cccc([N+](=O)[O-])c2)n1 (stereo unspecified) here.
> 100 µM

Supply recorded TGI for `O=C1c2cccc3cccc(c23)C(=O)N1CCCCCN1CCN(CCN=c2cc3n(-c4ccc(Cl)cc4)c4ccccc4nc-3cc2Nc2ccc(Cl)cc2)CC1` here.
22.3 µM

Supply recorded TGI for C=C(NC(=O)C(=C)NC(=O)c1ccc2c(n1)-c1coc(n1)C(=C)NC(=O)C(=C)NC(=O)c1nc(oc1C)C(=C)NC(=O)C(C(C)(C)O)NC(=O)C(=C)NC(=O)c1coc(n1)/C(=C/C)NC(=O)[C@H]([C@@H](C)O)NC(=O)c1csc-2n1)C(N)=O (stereo partly specified) here.
> 87.5 µM

Supply recorded TGI for `Clc1ccccc1C(Nc1cnccn1)Nc1cnccn1` here.
> 100 µM

Supply recorded TGI for `C/C(=N\Nc1nc2ccccc2s1)c1ccncn1` here.
5.55 µM

---

Tested on: M14 melanoma
Experimental protocol: NCI tumour cell line growth inhibition, 48 h
Property: TGI (µM)
I only need the number, in µM, no unit after it.

Reference set (2 entries):
Enter recorded TGI with M14 melanoma for COC1=CC(c2ccc[nH]2)=N/C1=C\c1[nH]c(C)c(C(=O)CCCCCCCCC(=O)O[C@H]2CC[C@H]3C4CCc5cc(O)ccc5C4CC[C@]23C)c1C (stereo partly drawn) here.
2.23

Enter recorded TGI with M14 melanoma for COc1ccc(N2C(=O)C3c4[nH]c5c(C)cccc5c4C4CCC(C(C)C)CC4C3C2=O)cc1 (stereo not drawn) here.
26.8

Here is another compound to look at.
Enter recorded TGI with M14 melanoma for `O=C1Nc2ccccc2/C1=C\c1c(Cl)n(-c2ccccc2)c2ccccc12` here.
10.1

---

Test system: DU-145 prostate
Experimental protocol: NCI tumour cell line growth inhibition, 48 h
// TGI lookup, one value per entry

Supply recorded TGI for `COc1cc2c(cc1OCCNC(=O)/C=C1\C[C@H]3C=Nc4cc(OCc5ccccc5)c(OC)cc4C(=O)N3C1)N=C[C@@H]1CCCN1C2=O` here.
37.3 µM

Supply recorded TGI for CCC1(c2ccc(N3C(=O)c4cccc5cc([N+](=O)[O-])cc(c45)C3=O)cc2)CCC(=O)NC1=O (stereo not drawn) here.
> 69.2 µM

Supply recorded TGI for `O=c1[nH]c(=O)n(COC(CO)CO)cc1-c1ccccc1` here.
> 100 µM

Supply recorded TGI for FC1=C2C3CCC(C3)C2C1(F)F (stereo not drawn) here.
> 100 µM

Supply recorded TGI for `CCC[CH2][Sn-]([CH2]CCC)([CH2]CCC)[O]C(=O)C(C)C` here.
0.252 µM

Supply recorded TGI for COc1cc(C2CC(c3ccc(Nc4nc(NCCO)nc(NCCO)n4)cc3)=NN2c2cc(Cl)cc(Cl)c2)cc(OC)c1OC (stereo not drawn) here.
4.11 µM

***
Supply recorded TGI for `O=c1c(-c2ccc3c(c2)OCO3)coc2c3c(ccc12)OCO3` here.
> 100 µM

Supply recorded TGI for `CSC(SC)=C(C(=O)c1ccc(Cl)cc1)n1c(=O)sc2cc(Br)ccc21` here.
> 100 µM

---

Tested on: MOLT-4 leukemia
Experimental protocol: NCI tumour cell line growth inhibition, 48 h
Property: TGI

Supply recorded TGI for ClC1=NN=C(c2c[nH]c3ccccc23)CC1NCc1ccccc1 (centres undefined) here.
> 100 µM

***
Supply recorded TGI for `C[C@]12CC[C@H]3[C@@H](CC=C4C[C@@H](N5CCCC5)CC[C@@]43C)[C@@H]1C[C@H](N1CCCCC1)[C@@H]2O` here.
> 100 µM

Supply recorded TGI for `O=C(Nc1sc2c(c1C(=O)O)CCCC2)c1ccco1` here.
> 50 µM

Supply recorded TGI for `CC(=O)[CH-]C(C)=O.CC(=O)[CH-]C(C)=O.[O-]c1ccccc1.[O-]c1ccccc1.[Ti+4]` here.
> 100 µM

---

System: HCC-2998 colon
Experimental protocol: NCI tumour cell line growth inhibition, 48 h
Property: TGI (µM)
I only need the number, in µM, no unit after it.

Reference set (4 entries):
Supply recorded TGI for `CC(C)(CO[C@H]1C[C@H]2CC[C@@]1(C)C2(C)C)[N+](=O)[O-]` here.
5.19

Supply recorded TGI for `COc1ccc2[nH]c(C(=O)N3CCN(C(=O)OCc4ccc5c(Cl)cc(Cl)c(O)c5n4)CC3)cc2c1` here.
3.32

Supply recorded TGI for C=C1C(=O)O[C@@H]2/C=C(/C)[C@@H](OC(C)=O)C/C=C(\C)C(O)[C@@H](OC(=O)/C(C)=C\C)C12 (stereo partly specified) here.
55.4

Supply recorded TGI for `CCCCCCCC/C=C/CCCCCCCC1=NC(C)(C)CN1C(C)(C)CO` here.
3.04

***
Supply recorded TGI for `Cn1c(COC(=O)NCCc2ccccn2)nc2c(N3CCOCC3)nc(Cl)nc21` here.
3.57

Supply recorded TGI for `Cc1ccccc1NC(=O)O/N=C(\Cl)C(C)C` here.
31.5

Supply recorded TGI for `O=C1Nc2ccccc2/C1=C\c1c(Cl)n(-c2ccccc2)c2ccccc12` here.
9.83

Supply recorded TGI for `Cc1ccc(/C(=N/Nc2ccc([N+](=O)[O-])cc2)Sc2cc(Cl)c(C)cc2S(N)(=O)=O)cc1` here.
3.66

Supply recorded TGI for CN(CCCCCl)P(=O)(OCc1ccc([N+](=O)[O-])o1)OCC1OC(n2ccc(N)nc2=O)C(O)C1O (stereo unspecified) here.
12.6

Supply recorded TGI for `CSc1nc(Nc2cccc(NC(=O)CCl)c2)c(C#N)c(-c2cccc([N+](=O)[O-])c2)n1` here.
4.37

---

Tested on: SR leukemia
Experimental protocol: NCI tumour cell line growth inhibition, 48 h
Property: TGI

Reference set (5 entries):
Supply recorded TGI for COc1ccc(-c2ccc(C3CC(c4ccccc4)=NN3)o2)c([N+](=O)[O-])c1 (stereo unspecified) here.
87.9 µM

Supply recorded TGI for COC(=N)C1(C#N)NC(c2ccsc2)C(C#N)(C#N)NC1c1ccsc1 (stereo unspecified) here.
> 100 µM

Supply recorded TGI for CC(=O)Nc1ccc(C2CC(c3ccc([N+](=O)[O-])cc3)=Nc3ccccc3S2)cc1 (stereo unspecified) here.
61.9 µM

Supply recorded TGI for `OCc1ccc(N(Cc2ccc(F)cc2)Cc2ccc(F)cc2)cc1Cl` here.
24.4 µM

Supply recorded TGI for O=C1NC(O)n2c(=O)[nH]c(=O)n21 (stereo unspecified) here.
> 100 µM

***
Supply recorded TGI for `Nc1c(C(=O)c2ccc(Cl)c(Cl)c2)[nH]c(NCc2ccccc2)c1C(=S)Nc1ccccc1` here.
> 100 µM

Supply recorded TGI for `O=c1c(-c2ccc3c(c2)OCO3)coc2c3c(ccc12)OCO3` here.
> 100 µM

Supply recorded TGI for `O=S(=O)(Nc1nc2ccccc2nc1N1CCCCCC1)c1ccccc1` here.
> 100 µM

Supply recorded TGI for `CN(C)C(=S)/N=c1\ss/c(=N\C(=S)N(C)C)n1-c1cccc(Cl)c1` here.
> 100 µM

Supply recorded TGI for Cn1/c(=N\N=C2\C=C3CCCCC3(C)CC2)sc2ccccc21 (stereo unspecified) here.
> 100 µM

Supply recorded TGI for CCOc1ccc2nc(NC(=O)C(=O)C(C(=O)c3ccccc3F)C3OC(=O)c4ccccc43)sc2c1 (stereo unspecified) here.
55.6 µM

Supply recorded TGI for `CCOC(=O)c1cc(-c2ccc(OC)cc2)c([N+](=O)[O-])[nH]1` here.
> 10 µM

---

Test system: OVCAR-4 ovarian
Experimental protocol: NCI tumour cell line growth inhibition, 48 h
// TGI lookup, one value per entry

Reference set (2 entries):
Supply recorded TGI for `Oc1ccc(Cl)cc1C=Nc1cnc2ccccc2c1` here.
> 100 µM

Supply recorded TGI for Cc1cn(CCCCCCOC(=O)NC(CCCNC(N)=O)C(=O)O)c(=O)[nH]c1=O (stereo not drawn) here.
> 100 µM

***
Supply recorded TGI for `N/N=C(/Cc1ccccc1)NNO` here.
> 100 µM
